# targetUnderTest: PDE4B2 (Homo sapiens)
# Construct: expressed in transfected cells; host or cells: Flp-In-293 (Flpin-293-PDE4B2 [sic])
# Sequence (Q07343 1-564 isoform Q07343-2): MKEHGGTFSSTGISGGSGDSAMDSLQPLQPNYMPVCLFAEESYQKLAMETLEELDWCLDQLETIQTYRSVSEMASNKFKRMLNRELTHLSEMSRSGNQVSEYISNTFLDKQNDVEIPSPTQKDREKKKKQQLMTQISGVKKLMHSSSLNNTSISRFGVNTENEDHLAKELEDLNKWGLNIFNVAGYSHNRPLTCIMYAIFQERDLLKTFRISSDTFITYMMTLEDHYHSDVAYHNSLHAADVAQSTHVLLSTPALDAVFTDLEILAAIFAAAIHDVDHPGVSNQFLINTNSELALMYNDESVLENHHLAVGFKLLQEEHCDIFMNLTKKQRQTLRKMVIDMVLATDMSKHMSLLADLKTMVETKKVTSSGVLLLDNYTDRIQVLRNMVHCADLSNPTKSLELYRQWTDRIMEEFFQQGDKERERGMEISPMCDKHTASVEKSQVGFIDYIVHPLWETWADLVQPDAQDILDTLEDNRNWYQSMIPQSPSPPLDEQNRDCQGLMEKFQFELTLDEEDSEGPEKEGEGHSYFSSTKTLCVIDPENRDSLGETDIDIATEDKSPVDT
# protocolDetails: PDE4B2 cell experiment (cAMP, Eu-cAMP tracer / Ulight-anti-cAMP)
# Format: cell-based
# conditionsUsed: Flpin-293-PDE4B2 cells, 10 nM

compound	valueUnits	Cell Inhibition% @10 nM
Cc1ccc2c(c1)OC[C@H]1CN(c3nc4c(c(NC5(CO)CCC5)n3)[S+]([O-])CC4)CC[C@H]21 (stereo partly drawn)	%	54.08
[O-][S+]1CCc2nc(N3Cc4ccc(C(F)(F)F)cc4C3)nc(NC3(CO)CCC3)c21 (stereo not drawn)	%	29.5
[O-][S+]1CCc2nc(N3CCc4c(ncc5cc(Cl)ccc45)C3)nc(NC3(CO)CCC3)c21 (stereo not drawn)	%	47.68
Cn1cnc(-c2ccc3c(c2)CCN(c2nc4c(c(NC5(CO)CCC5)n2)[S+]([O-])CC4)C3)n1 (stereo not drawn)	%	94.09
[O-][S+]1CCc2nc(N3Cc4ccc(Cl)cc4C3)nc(NC3(CO)CCC3)c21 (stereo not drawn)	%	9
[O-][S+]1CCc2nc(N3CCc4cc(Cl)c(F)cc4C3)nc(NC3(CO)CCC3)c21 (stereo not drawn)	%	15.7
[O-][S+]1CCc2nc(N3CCc4c(c(NCCO)nc5cc(Cl)ccc45)C3)nc(NC3(CO)CCC3)c21 (stereo not drawn)	%	38.89
Nc1nc2cc(Cl)ccc2c2c1CN(c1nc3c(c(NC4(CO)CCC4)n1)[S+]([O-])CC3)CC2 (stereo not drawn)	%	35.86
[O-][S+]1CCc2nc(N3CCc4ccsc4C3)nc(NC3(CO)CCC3)c21 (stereo not drawn)	%	18.10
[O-][S+]1CCc2nc(N3Cc4ccc(Br)cc4C3)nc(NC3(CO)CCC3)c21 (stereo not drawn)	%	42.65
[O-][S+]1CCc2nc(N3CCc4cc(N5CCCC5)ccc4C3)nc(NC3(CO)CCC3)c21 (stereo not drawn)	%	43.69
O=C1CCCN1c1ccc2c(c1)CCN(c1nc3c(c(NC4(CO)CCC4)n1)[S+]([O-])CC3)C2 (stereo not drawn)	%	31.33
COc1nc2c(c3ccc(Cl)cc13)CCN(c1nc3c(c(NC4(CO)CCC4)n1)[S+]([O-])CC3)C2 (stereo not drawn)	%	43.68
[O-][S+]1CCc2nc(N3CCc4c(nn5cc(F)ccc45)C3)nc(NC3(CO)CCC3)c21 (stereo not drawn)	%	74.22
Cn1c2c(c3ccc(Cl)cc3c1=O)CCN(c1nc3c(c(NC4(CO)CCC4)n1)[S+]([O-])CC3)C2 (stereo not drawn)	%	46.69
[O-][S+]1CCc2nc(N3CCc4cc(-c5cnco5)ccc4C3)nc(NC3(CO)CCC3)c21 (stereo not drawn)	%	97.0
[O-][S+]1CCc2nc(N3CCc4cc(-n5cccn5)ccc4C3)nc(NC3(CO)CCC3)c21 (stereo not drawn)	%	86.01
[O-][S+]1CCc2nc(N3CC[C@@H]4c5ccc(C(F)(F)F)cc5OC[C@H]4C3)nc(NC3(CO)CCC3)c21 (stereo partly drawn)	%	22.21
CS(=O)(=O)c1ccc2c(c1)CCN(c1nc3c(c(NC4(CO)CCC4)n1)[S+]([O-])CC3)C2 (stereo not drawn)	%	61.02
[O-][S+]1CCc2nc(N3CCc4ccc(Cl)cc4C3)nc(NC3(CO)CCC3)c21 (stereo not drawn)	%	14.18
Cn1cc2c(n1)CN(c1nc3c(c(NC4(CO)CCC4)n1)[S+]([O-])CC3)CC2 (stereo not drawn)	%	11.30
[O-][S+]1CCc2nc(N3CCc4cc(F)c(F)cc4C3)nc(NC3(CO)CCC3)c21 (stereo not drawn)	%	6.8
[O-][S+]1CCc2nc(N3CCc4cc(N5CC(F)C5)ccc4C3)nc(NC3(CO)CCC3)c21 (stereo not drawn)	%	37.42
[O-][S+]1CCc2nc(N3CC[C@H]4c5cnc(Cl)cc5OC[C@@H]4C3)nc(NC3(CO)CCC3)c21 (stereo partly drawn)	%	17.32
